Listing of IC50 toward UniProt Q12866, each taken from a published source.

The following compounds have reported results that may help.
compound	endpoint label	observed measurement
CCC[C@H](C)Nc1ncc2c(=O)n(C3CCNCC3)cc([C@H]3CC[C@H](O)CC3)c2n1	IC50	≤ 100 nM
CCCC(C)Nc1ncc2c(OC3CCC(OC)CC3)ncc([C@H]3CC[C@H](O)CC3)c2n1 (stereo partly shown)	IC50	≤ 100 nM
CCOc1cn(-c2ccc(F)cc2C)nc1C(=O)Nc1ccc(Oc2ncnc3cc(OCCCN4CCOCC4)c4c(c23)OCCO4)c(F)c1	IC50	50 to 500 nM

Problem: May I ask what IC50 has been recorded for `CCOc1ccn(-c2ccc(F)cc2)c(=O)c1C(=O)Nc1ccc(Oc2ccnc3cc(OCCCN4CCCCC4)c4c(c23)OCCO4)c(F)c1` ?
Solution: ≤ 50 nM

Problem: Next: `CNC(=O)c1ncc(-c2cc([C@H]3CC[C@H](O)CC3)n3nc(N[C@@H](C)CC(F)(F)F)ncc23)cn1`
Solution: ≤ 100 nM

Problem: How about this compound: COCC(C)Nc1ncc2c(C3CCN(C(C)=O)C3)cc(C3CCC(O)CC3)n2n1 (mixture of isomers)
Solution: ≤ 100 nM

Problem: Field entry: CCC1(O)CCC(c2cc(-c3cnn(C4COC4)c3)c3cnc(NC(C)COC)nn23)CC1 (stereo not shown)
Solution: ≤ 100 nM

Problem: Lookup OC1CCC(c2cc(-c3ccnc(N4CCOCC4)c3)c3cnc(NCCC4CC4)nn23)CC1 (stereo not shown)
Solution: ≤ 100 nM

Problem: Consider next the compound `C[C@@H](CC(F)(F)F)Nc1ncc2c([C@H]3CC[C@@H](C(=O)N4CCOCC4)CC3)cc([C@H]3CC[C@H](O)CC3)n2n1` in the same way.
Solution: ≤ 100 nM

Problem: Same question, `CCOc1ccn(-c2ccc(F)cc2)c(=O)c1C(=O)Nc1ccc(Oc2ccnc3cc(OC)c4c(c23)OCCO4)c(F)c1` this time
Solution: ≤ 50 nM

Problem: And the next one, CC1(N2CCC[C@H]2CO)CCc2ccc(-c3cnc4[nH]nc(-c5ccc(S(=O)(=O)C6CC6)cc5)c4c3)cc2CC1 (stereo partly shown) ?
Solution: 100 to 1000 nM

Problem: Also `Cn1cc(-c2cnc(N)c(C(=O)N[C@@H]3CCN(C(=O)c4ccc(-c5ccc(Oc6ccc(C(N)=O)cc6)cc5)cc4)C3)c2)cn1` ?
Solution: 10 to 100 nM

* * *

Compiled IC50 measurements on MERTK (Homo sapiens) taken from the literature.

compound	IC50
COCC(C)Nc1ncc2c(-c3cccc(C(C)N4CCCC4)c3)cc(C3CCC(O)CC3)n2n1 (stereo not shown)	≤ 0.1 µM
CCCC(C)Nc1ncc2c(OC3CC(C)(C)N(C)C(C)(C)C3)ncc([C@H]3CC[C@H](O)CC3)c2n1 (stereo partly shown)	≤ 0.1 µM
C[C@H](CF)Nc1ncc2c(OC3CCOCC3)ncc([C@H]3CC[C@H](O)CC3)c2n1	≤ 0.1 µM

Problem: Look up IC50: `Cn1cc(-c2cnc(N)c(C(=O)N[C@@H]3CCN(C(=O)c4ccc(-c5ccccc5)cn4)C3)c2)cn1`
Solution: > 1 µM

* * *

pIC50: −log10 of the molar value.
Compiled record: pIC50 values for MERTK (Homo sapiens, UniProt Q12866) across several sources.

molecule	pIC50
Cn1cc(-c2cnc(N)c(C(=O)N[C@@H]3CCN(C(=O)c4cccc(-c5cnn(C6CCCC6)c5)c4)C3)c2)cn1	< 6.00

Problem: Fill blank: measured pIC50 of the molecule CCCC(C)Nc1ncc2c(OC3CCS(=O)(=O)CC3)ncc([C@H]3CC[C@@H](O)CC3)c2n1 (some centres unmarked) is ____.
Solution: ≥ 7.00

Problem: // same read-out, input: `O=C([C@@H]1CCCN1)N1CCc2ccc(-c3cnc4[nH]nc(-c5ccc(S(=O)(=O)C6CC6)cc5)c4c3)cc2CC1`
Solution: < 6.00

Problem: Another molecule to check: C[C@@H]1CCCN1C1(C)CCc2ccc(-c3cnc4[nH]nc(-c5ccc(S(=O)(=O)C6CC6)cc5)c4c3)cc2CC1 (some centres unmarked)
Solution: 6.00 to 7.00

Problem: What would you report for `Cn1cc(-c2cnc(N)c(C(=O)N[C@@H]3CCN(C(=O)c4ccc(-c5ccc(Oc6nn[nH]n6)cc5)cc4)C3)c2)cn1` ?
Solution: 6.00 to 7.00

Problem: Do the same for `COC[C@H](C)Nc1ncc2c(-c3cnn(Cc4noc(C)n4)c3)cc([C@H]3CC[C@H](O)CC3)n2n1` please
Solution: ≥ 7.00

Problem: `Nc1ncc(-c2cnn(C3CCOCC3)c2)cc1-c1ncc(-c2ccccc2)o1` ?
Solution: < 5.00

Problem: Input `CCOc1ccn(-c2ccc(F)cc2)c(=O)c1C(=O)Nc1ccc(Oc2ccnc3cc(OCCCC#N)c4c(c23)OCCO4)c(F)c1`
Solution: ≥ 7.30

Problem: Queued: `C[C@@H](CO)Nc1ncc2c(OC3CCOCC3)ncc([C@H]3CC[C@H](O)CC3)c2n1`
Solution: 6.00 to 7.00

Problem: What do we get for `COCCn1cc(-c2cc([C@H]3CC[C@H](O)CC3)n3nc(N[C@@H](C)COC)ncc23)cn1` ?
Solution: ≥ 7.00

Problem: Another: `COC[C@H](C)Nc1ncc2c(-c3ccnc(N4CCN(C(C)=O)CC4)c3)cc([C@H]3CC[C@H](O)CC3)n2n1`
Solution: ≥ 7.00

* * *

Collected from the literature: pIC50 of various molecules toward MERTK (Homo sapiens).
pIC50: −log10 of the molar value.

A selection of reference data follows.
molecule	endpoint label	observed measurement
Cn1cc(-c2cnc(N)c(C(=O)N[C@@H]3CCN(C(=O)c4cccc5[nH]ccc45)C3)c2)cn1	pIC50	< 6.00
COC[C@H](C)Nc1ncc2c(-c3ccnc(F)c3)cc([C@H]3CC[C@H](O)CC3)n2n1	pIC50	≥ 7.00
CN1CCC(n2cc(-c3cnc(N)c(-c4ncc(-c5ccc(Cl)cc5)o4)c3)cn2)CC1	pIC50	> 6.30

Problem: Need pIC50 of O=S(=O)(c1ccc(-c2n[nH]c3ncc(-c4ccc5c(c4)CCN(CC4CCOC4)CC5)cc23)cc1)C1CC1 (stereo not shown) , thanks.
Solution: < 6.00

* * *

We begin with IC50 values for MERTK (Homo sapiens, UniProt Q12866), as collected from the published literature.

molecule	assay target	IC50
CC[C@H](C)Nc1ncc2c(C3CCN(c4nccc(C)n4)CC3)cc([C@H]3CC[C@H](O)CC3)n2n1	MERTK (Homo sapiens, UniProt Q12866)	≤ 100 nM
Cc1cc(-c2cc([C@H]3CC[C@H](O)CC3)n3nc(N[C@@H](C)CC(F)(F)F)ncc23)ccn1	MERTK (Homo sapiens, UniProt Q12866)	≤ 100 nM
CCOc1ccn(-c2ccc(F)cc2)c(=O)c1C(=O)Nc1ccc(Oc2ccnc3cc(OCCOC)c4c(c23)OCCO4)c(F)c1	MERTK (Homo sapiens, UniProt Q12866)	≤ 50 nM
CCCCNc1ncc2c(OC3CCN(C)CC3)ncc([C@H]3CC[C@H](O)CC3)c2n1	MERTK (Homo sapiens, UniProt Q12866)	≤ 100 nM
CCOc1ccn(-c2ccc(F)cc2)c(=O)c1C(=O)Nc1ccc(Oc2ccnc3cc(OCCCN4CCS(=O)(=O)CC4)c4c(c23)OCCO4)c(F)c1	MERTK (Homo sapiens, UniProt Q12866)	≤ 50 nM
CC(C)c1ccccc1-c1ccc(C(=O)N2CC[C@@H](NC(=O)c3cc(-c4cnn(C)c4)cnc3N)C2)cc1	MERTK (Homo sapiens, UniProt Q12866)	100 to 1000 nM

Problem: Give MERTK (Homo sapiens, UniProt Q12866) IC50 for `C[C@H](Nc1ncc2c(OC3CCNCC3)ncc([C@H]3CC[C@H](O)CC3)c2n1)c1ccccc1`
Solution: ≤ 100 nM

Problem: Check `CC(C)c1ccc(C(=O)N2CC[C@@H](NC(=O)c3cc(-c4cnn(C)c4)cnc3N)C2)cc1` too.
Solution: > 1000 nM

Problem: Next molecule up: `CCCCC[C@H](C)Nc1ncc2c(OC3CCNCC3)ncc([C@H]3CC[C@H](O)CC3)c2n1`
Solution: ≤ 100 nM

Problem: COCC(C)Nc1ncc2c(C3CCCN(C(C)=O)C3)cc(C3CCC(O)CC3)n2n1 (stereo not shown) ?
Solution: ≤ 100 nM

Problem: Cool, now NC(=O)c1ccc(-c2n[nH]c3ncc(-c4ccc5c(c4)CCC(N4CCCC4)CC5)cc23)cc1Cl (stereo not shown)
Solution: < 100 nM

Problem: Next molecule: `CC1(Nc2ncc3c(OC4CCNCC4)ncc([C@H]4CC[C@H](O)CC4)c3n2)CC1`
Solution: ≤ 100 nM

Problem: Another molecule: `COCCOc1nc(Nc2ccc(CN3CCN(C)CC3)cc2)nc2[nH]cc(-c3ccc(OCc4cnccc4OC)cc3F)c12`
Solution: > 1000 nM
